System: Aspergillus versicolor
test summary: Antifungal activity against Aspergillus versicolor ATCC 11730 at 28 degC measured after 72 hr by microdilution method
Type: functional
condition summary: ATCC 11730, 72 h
property: MIC (µM)

Use the examples below as a reference point.
compound | MIC [µM]
COc1cc(Cc2nnc(Nc3ccc(C(F)(F)F)cc3)s2)c(S(=O)(=O)N2CCCC2)cc1OC | 18.9
CC(=O)N1CCN(c2ccc(OCC3COC(Cn4ccnc4)(c4ccc(Cl)cc4Cl)O3)cc2)CC1 (centres undefined) [KETOCONAZOLE] | 380

I = COc1cc(Cc2nnc(Nc3ccc(C(F)(F)F)cc3)s2)c(S(=O)(=O)N2CCN(C)CC2)cc1OC
II = COc1cc(Cc2nnc(Nc3ccc(Cl)cc3)s2)c(S(=O)(=O)N2CCCCC2)cc1OC
When their MIC values are compared, which is larger, I or II ? Lab note: record the label of whichever item you select.
I

----------
Test system: Talaromyces funiculosus
test summary: Antifungal activity against Talaromyces funiculosus ATCC 36839 at 28 degC measured after 72 hr by microdilution method
Type: functional
condition summary: ATCC 36839, 72 h
property: MIC (µM)

compound | MIC / µM
COc1cc(Cc2nnc(Nc3ccc(Cl)cc3)s2)c(S(=O)(=O)N2CCCCC2)cc1OC | 19.7
COc1cc(Cc2nnc(Nc3ccc([N+](=O)[O-])cc3)s2)c(S(=O)(=O)N2CCCCC2)cc1OC | 19.3
c1ccc(-c2ccc(C(c3ccccc3)n3ccnc3)cc2)cc1 (stereo not given) | 640

1 = COc1cc(Cc2nnc(Nc3ccc(C(F)(F)F)cc3)s2)c(S(=O)(=O)N2CCCC2)cc1OC
2 = COc1cc(Cc2nnc(Nc3ccc(C(F)(F)F)cc3)s2)c(S(=O)(=O)N2CCCCC2)cc1OC
Looking at recorded values for MIC, does 1 or 2 come in lower? Pick one and reply with its label.
2

----------
Test system: Talaromyces funiculosus
test summary: Antifungal activity against Talaromyces funiculosus ATCC 36839 at 28 degC measured after 72 hr by microdilution method
Format: functional
condition summary: ATCC 36839, 72 h
property: MIC (µM)

# annotated cases, reported MIC shown
smiles input | system | units | meas value
COc1cc(Cc2nnc(Nc3ccc([N+](=O)[O-])cc3)s2)c(S(=O)(=O)N(C)C)cc1OC | Talaromyces funiculosus | µM | 10.5
COc1cc(Cc2nnc(Nc3ccc(C(F)(F)F)cc3)s2)c(S(=O)(=O)N(C)C)cc1OC | Talaromyces funiculosus | µM | 9.9
COc1cc(Cc2nnc(Nc3ccc(Cl)cc3)s2)c(S(=O)(=O)N2CCN(C)CC2)cc1OC | Talaromyces funiculosus | µM | 19.1

a = COc1cc(Cc2nnc(Nc3ccc(C(F)(F)F)cc3)s2)c(S(=O)(=O)N2CCN(C)CC2)cc1OC
b = COc1cc(Cc2nnc(Nc3ccccc3)s2)c(S(=O)(=O)N2CCCC2)cc1OC
Which value of MIC is numerically greater: that of a or that of b ? Kindly give the label for the entry you pick.
b

----------
Tested on: Aspergillus fumigatus
test summary: Antifungal activity against plant isolate Aspergillus fumigatus at 28 degC measured after 72 hr by microdilution method
Assay type: functional
This listing pairs molecules with measured MIC.
Give the value, in units of µM, as a plain number.

molecule | property | meas value
c1ccc(-c2ccc(C(c3ccccc3)n3ccnc3)cc2)cc1 (stereo not given) [BIFONAZOLE] | MIC | 480
COc1cc(Cc2nnc(Nc3ccc(C(F)(F)F)cc3)s2)c(S(=O)(=O)N2CCCC2)cc1OC | MIC | 18.9

So what does the record say about MIC for COc1cc(Cc2nnc(Nc3ccc(Cl)cc3)s2)c(S(=O)(=O)N2CCN(C)CC2)cc1OC ?
9.6

Tell me the measured MIC of COc1cc(Cc2nnc(Nc3ccc([N+](=O)[O-])cc3)s2)c(S(=O)(=O)N(C)C)cc1OC , please.
20.9
